# Tested on: NCI/ADR-RES ovarian
# experimental.details: NCI-60 one-dose screen, 48 h (100 = growth as untreated, 0 = no growth, -100 = all killed)
# condition.details: 10 µM unless noted
The panel holds about 83,000 compounds, 20% with a hit somewhere; the sample as a whole holds those more often.
Just a reminder that ties go to -1: only growth strictly below 20% counts as 1.

Exam item: Dear colleague, could you confirm whether growth of CCOP(=O)(Nc1ccc2c(c1)/C(=N/NC(N)=S)c1ccccc1-2)OCC falls below 20%? Thanks.
Marked response: -1

Exam item: Dear colleague, could you confirm whether growth of O=C(c1ccccc1O)c1[nH]c(Cl)c(Cl)c1-n1c(C(=O)c2ccccc2O)cc(Cl)c1Cl falls below 20%? Thanks.
Marked response: 1

Exam item: Dear colleague, could you confirm whether growth of C[C@]12CCc3sc(-c4ccccc4O)nc3C1=CC[C@@H]1[C@@H]2CC[C@]2(C)C(=O)CC[C@@H]12 falls below 20%? Thanks.
Marked response: -1

Exam item: Dear colleague, could you confirm whether growth of CC1[C@H](C)OC(=O)CC(O)CC(O)CC(O)CCC(O)C(O)C[C@]2(O)CC(O)C(C(=O)O)C(CC(OC3O[C@H](C)[C@@H](O)[C@H](N)[C@@H]3O)/C=C/C=C/C=C/C=C/CC/C=C/C=C/[C@H](C)[C@H]1O)O2 (some centres not stated) falls below 20%? Thanks.
Marked response: -1

Exam item: Dear colleague, could you confirm whether growth of CC[C@H](C)[C@H](NC(=O)c1nccn1C)C(=O)N(C)[C@H](C[C@@H](OC(C)=O)c1nc(C(=O)N[C@@H](Cc2ccccc2)C[C@H](C)C(=O)OC)cs1)C(C)C falls below 20%? Thanks.
Marked response: 1

Exam item: Dear colleague, could you confirm whether growth of CC[C@H](C)[C@H](NC(=O)c1ccccn1)C(=O)N(C)[C@H](C[C@@H](OC(C)=O)c1nc(C(=O)N[C@@H](Cc2ccccc2)C[C@H](C)C(=O)OC)cs1)C(C)C falls below 20%? Thanks.
Marked response: 1

Exam item: Dear colleague, could you confirm whether growth of CC[C@]12C=CCN3CC[C@]4(C(=C(C(=O)OC)C1)Nc1cc(OC)c(OC(C)=O)cc14)[C@@H]32 falls below 20%? Thanks.
Marked response: 1

---

# System: U251 CNS
# experimental.details: NCI-60 one-dose screen, 48 h (100 = growth as untreated, 0 = no growth, -100 = all killed)
# condition.details: 10 µM unless noted
This is part of a sample that, as a whole, favours compounds with a hit. Of some 83,000 tested, about 20% had one in any assay. The source made the active and inactive calls. Rule for the calls: active = growth percent below 10; inactive = the rest.
measurement.label: growth

Exam item: Bench note: what growth did CC(C)=CCC[C@H](C(=O)O)[C@@H]1CC[C@]2(C)C3=C(CC[C@@]12C)[C@@]1(C)CC[C@H](O)C(C)(C)[C@@H]1CC3 show?
Marked response: 94.5% (inactive)

Exam item: Bench note: what growth did COc1ccc(/C=C\c2cc(OC)c(OC)c(OC)c2)c(NS(=O)(=O)c2ccc(F)cc2)c1O show?
Marked response: 19.1% (inactive)

Exam item: Bench note: what growth did C[Se]C(=O)c1ccccc1OC(C)=O show?
Marked response: 46% (inactive)

Exam item: Bench note: what growth did O=C1C(N2CC2)=C(N2CC2)C(=O)C(N2CC2)=C1N1CC1 show?
Marked response: -63.6% (active)

Exam item: Bench note: what growth did COC1=CC(=O)O[C@@H](/C=C/c2ccc3c(c2)OCO3)C1 show?
Marked response: 97.9% (inactive)

Exam item: Bench note: what growth did CO[C@H]1CC[C@@]2(C)C(=CC[C@@H]3[C@@H]2CC[C@]2(C)C(=O)C(=O)C[C@@H]32)C1 show?
Marked response: 104% (inactive)

Exam item: Bench note: what growth did C=C(C)[C@@]12OC3(/C=C/C=C/CCCCC)O[C@@H]1[C@@H]1[C@@H]4O[C@]4(CO)[C@@H](O)[C@]4(O)C(=O)C(C)=C[C@H]4[C@@]1(O3)[C@H](C)[C@H]2OC(=O)c1ccccc1 show?
Marked response: 53.2% (inactive)

Exam item: Bench note: what growth did c1ccc(Nc2nc(-c3ccccc3)c[se]2)cc1 show?
Marked response: 84.4% (inactive)

Exam item: Bench note: what growth did COc1cc(C=Nc2cccc(Br)c2)ccc1N(CCCl)CCCl show?
Marked response: 73% (inactive)

---

# Tested on: SK-MEL-2 melanoma
# experimental.details: NCI-60 one-dose screen, 48 h
# condition.details: 10 µM unless noted
Compounds without any hit were thinned out: in the full panel of roughly 83,000, 20% have a hit. The source made the active and inactive calls. Rule for the calls: active = growth percent below 10; inactive = the rest.
Your response should consist of one outcome taken from Yes for active, No for inactive

Exam item: Hi, sorry to bother you, what did the test record for NC(N)=N/N=C\c1c[nH]c2ccc(Br)cc12 ?
Marked response: No

Exam item: Hi, sorry to bother you, what did the test record for CC(C)=CCc1c(O)c(C(=O)CC(C)C)c(O)c2c(-c3ccccc3)cc(=O)oc12 ?
Marked response: No

Exam item: Hi, sorry to bother you, what did the test record for Brc1ccc2c(c1)c(-c1nc(-c3c[nH]c4ncccc34)cs1)cn2CCN1CCOCC1 ?
Marked response: No

Exam item: Hi, sorry to bother you, what did the test record for O=Cc1cn(Cc2ccc(Cl)cc2)c2ccccc12 ?
Marked response: No

Exam item: Hi, sorry to bother you, what did the test record for COc1ccc(/C=C\c2cc(OC)c(OC)c(OC)c2)cc1OCC(=O)Nc1nc2ccc(OC(F)(F)F)cc2s1 ?
Marked response: No

Exam item: Hi, sorry to bother you, what did the test record for COc1ccc(C(=O)c2cc(OC)c(OC)c(OC)c2)cc1OC(C)=O ?
Marked response: No

Exam item: Hi, sorry to bother you, what did the test record for COC(=O)CCc1c[nH]c2ccc(N(CCCl)CCCl)cc12 ?
Marked response: No

Exam item: Hi, sorry to bother you, what did the test record for O=C(N/N=C\c1ccc(N(CCCl)CCCl)cc1Cl)c1cccnc1 ?
Marked response: No

Exam item: Hi, sorry to bother you, what did the test record for CN(C)CCCOc1ccc2c(c1)c(C(=O)C(=O)NCCO)cn2Cc1ccccc1 ?
Marked response: No

Exam item: Hi, sorry to bother you, what did the test record for CC[C@H](C)[C@H](NC(=O)[C@H]1CCCCN1C)C(=O)N(C)[C@H](CC(=O)c1nc(C(=O)N[C@@H](Cc2ccccc2)C[C@H](C)C(=O)O)cs1)C(C)C ?
Marked response: No

Exam item: Hi, sorry to bother you, what did the test record for N#CC1C(C#N)C2CCC1C1C2N1c1ccccc1 (centres undefined) ?
Marked response: No

Exam item: Hi, sorry to bother you, what did the test record for CC(C)(NC(=O)O[C@@H]1CN2CCC1CC2)c1csc(-c2ccc(F)cc2)n1 ?
Marked response: No

Exam item: Hi, sorry to bother you, what did the test record for Cc1cc(N(CCCl)CCCl)ccc1C=Nc1cccnc1 ?
Marked response: No

Exam item: Hi, sorry to bother you, what did the test record for CCc1ccccc1[C@@H]1C[C@]2(C)CCO[C@@H]2OO1 ?
Marked response: No

Exam item: Hi, sorry to bother you, what did the test record for O=[N+]([O-])c1ccc(OP(=O)(CCl)N(CCCl)CCCl)cc1 (centres undefined) ?
Marked response: No

Exam item: Hi, sorry to bother you, what did the test record for COC(=O)[C@@H](C)C[C@H](Cc1ccccc1)NC(=O)c1nc([C@@H](C[C@H](C(C)C)N(C)C(=O)[C@@H](NC(=O)[C@H]2CC(=O)CCN2C)C(C)C)OC(C)=O)sc1C(C)C ?
Marked response: Yes

Exam item: Hi, sorry to bother you, what did the test record for C[CH2][Sn]([Cl])([Cl])[CH2]C.Oc1ccccc1C=NCCN=Cc1ccccc1O ?
Marked response: No

Exam item: Hi, sorry to bother you, what did the test record for C[C@@]12CC[C@@H](O)C[C@@H]1CC[C@H]1[C@H]2CC[C@@]2(C)[C@H](c3ccc(=O)oc3)CC[C@@]12O ?
Marked response: Yes

Exam item: Hi, sorry to bother you, what did the test record for COc1cc(C=Nc2cccc(Br)c2)ccc1N(CCCl)CCCl ?
Marked response: No

---

# System: HT29 colon
# experimental.details: NCI-60 one-dose screen, 48 h (100 = growth as untreated, 0 = no growth, -100 = all killed)
# condition.details: 10 µM unless noted
This is part of a sample that, as a whole, favours compounds with a hit. Of some 83,000 tested, about 20% had one in any assay. The source made the active and inactive calls. How the source made its calls: active means growth percent below 10; inactive means the rest.
Consider the following compounds; for each one, report its growth.

Exam item: Bench note: what growth did CC1=C(O)[C@@](C)(CCCCC[C@H](C)CCCCc2ccc(O)cc2)OOC1=O show?
Marked response: 105% (inactive)

Exam item: Bench note: what growth did CN(C)C1C(=O)C(C(N)=O)=C(O)C2(O)C(=O)C3=C(O)c4c(O)cccc4C(C)(O)C3CC12.[Cl][Sb]([Cl])[Cl] (centres undefined) show?
Marked response: 38.5% (inactive)

Exam item: Bench note: what growth did C=CC1=C[C@@H]2[C@@H]3O[C@]4(CC[C@H](O4)[C@@H](C)C[C@@H](O)C3=O)C[C@H](O)C3=NCC[C@@]32CC1 show?
Marked response: -13.6% (active)

Exam item: Bench note: what growth did CC1=C(CCCOC(=O)CN)C2=C(C)C3(CC3)[C@@](C)(O)C(=O)C2=C1 show?
Marked response: 69.9% (inactive)

Exam item: Bench note: what growth did CC[C@H](C)[C@H](NC(=O)c1nccn1C)C(=O)N(C)[C@H](C[C@@H](OC(C)=O)c1nc(C(=O)N[C@@H](Cc2ccccc2)C[C@H](C)C(=O)OC)cs1)C(C)C show?
Marked response: -6.75% (active)

Exam item: Bench note: what growth did Cc1cnc(/C=C/C(=O)O)cc1-c1cc2c(cc1C)C(C)(C)CCC2(C)C show?
Marked response: 68.3% (inactive)

Exam item: Bench note: what growth did O=C(CC1(O)C(=O)N(Cc2ccccc2)c2ccc(F)cc21)c1ccc(C(=O)NCC2CCC3(CC2)OOC2(CCCCC2)OO3)cc1 (centres undefined) show?
Marked response: -70.2% (active)

Exam item: Bench note: what growth did COC(=O)[C@@H](C)C[C@H](Cc1ccccc1)NC(=O)c1csc([C@@H](C[C@H](C(C)C)N(C)C(=O)[C@@H](NC(=O)CN(C)C)C2CC2)OC(C)=O)n1 show?
Marked response: -24.4% (active)

Exam item: Bench note: what growth did CC12CCC3C(C=CC4=C(N)C(=O)CCC43C)C1CCC2=O (centres undefined) show?
Marked response: 51.2% (inactive)

Exam item: Bench note: what growth did c1cc2c(c3c1CCNC3)OCO2 show?
Marked response: 91.8% (inactive)

Exam item: Bench note: what growth did Oc1c(O)c(Cl)c(Cl)c(Cl)c1Cl show?
Marked response: 62.7% (inactive)

Exam item: Bench note: what growth did COP(=S)(N1CC1)N1CC1 show?
Marked response: 103% (inactive)

Exam item: Bench note: what growth did Oc1c(CCl)cc(Cl)cc1CCl show?
Marked response: 104% (inactive)

Exam item: Bench note: what growth did C#Cc1ccc2c(c1)C(c1ccccc1)=NCC(=O)N2C show?
Marked response: 13.1% (inactive)

Exam item: Bench note: what growth did Clc1ccc2nnnn2n1 show?
Marked response: 12.9% (inactive)

Exam item: Bench note: what growth did C#C[C@]1(OC(=O)CCCCCC)CC[C@H]2[C@@H]3CCC4=CC(=O)CC[C@@H]4[C@H]3CC[C@@]21C show?
Marked response: 9.11% (active)

Exam item: Bench note: what growth did CCN(CCO)C(Cc1ccccc1)c1ccccc1 (centres undefined) show?
Marked response: 98.5% (inactive)

Exam item: Bench note: what growth did COC(=O)[C@@H](C[C@H](Cc1ccccc1)NC(=O)c1csc([C@@H](C[C@H](C(C)C)N(C)C(=O)[C@@H](NC(=O)[C@H]2CCCCN2C)C(C)C)OC(C)=O)n1)NC(=O)OCc1ccccc1 show?
Marked response: -19.6% [9.5 µM] (active)

Exam item: Bench note: what growth did OCc1ccc2c(c1)OCO2 show?
Marked response: 96.4% (inactive)
